Tested on: human intestine cytosol (SULT1A1 and SULT1A3)
Assay: Inhibition of 2-naphthol sulfation by human intestine cytosol
Assay type: biochemical
Settings: read-out: IC50, 2-Naphthol sulfation, Cytosol, substrate 100 μM 2-naphthol
IC50 by entry:
Give your result in µM as a bare value.

Below, each entry is followed by its recorded IC50 result.
>  <COMPOUND>
COc1ccc([C@@H]2CC(=O)c3c(O)cc(O)cc3O2)cc1O [Hesperetin]

>  <OBSERVED_MEASUREMENT>
32.2

$$$$
>  <COMPOUND>
O=C1C[C@@H](c2ccc(O)c(O)c2)Oc2cc(O)cc(O)c21 [Eriodictyol, eriodictyol]

>  <OBSERVED_MEASUREMENT>
28.9

$$$$
>  <COMPOUND>
Oc1cc(O)c2c(c1)OC(c1ccc(O)c(O)c1)C(O)C2 (single isomer, unassigned; (+)) [Catechin, (+)catechin]

>  <OBSERVED_MEASUREMENT>
67.1

$$$$

Moving on to the next compound.
Query :: Entry Oc1cc(O)c2c(c1)O[C@H](c1ccc(O)c(O)c1)[C@H](O)C2 [Epicatechin, (−)epicatechin] has what IC50?
Result :: 157
